Recorded values, source patent US8426408B2.

Readings of EC15 for the listed compounds
# Tested on: NCI-H1299 cells
# Test: Induction of polyploidy in H1299
# Format: cell-based, Human
# Conditions: Homo sapiens; NCI-H1299, 48 hours; read-out: EC15 (concentration of inhibitor necessary to induce polyploidy in 15% of cells)
Readout Name: EC15

[[record]]
compound = "Cn1cc(Nc2ncc(C(F)(F)F)c(Nc3ccccc3C3(O)CCC3)n2)cn1 [Example 115]"
system = "NCI-H1299 cells"
readout_name = "EC15"
data_value = "< 100 nM"

[[record]]
compound = "Cn1cc(Nc2ncc(Br)c(Nc3ccccc3C3(O)CCC3)n2)cn1 [Example 132]"
system = "NCI-H1299 cells"
readout_name = "EC15"
data_value = "100 to 1000 nM"

[[record]]
compound = "NC(=O)[C@@H]1[C@H](Nc2nc(Nc3cnn([C@@H]4CCOC4)c3)ncc2Br)[C@H]2C=C[C@@H]1C2 [Example 116]"
system = "NCI-H1299 cells"
readout_name = "EC15"
data_value = "< 100 nM"

[[record]]
compound = "NC(=O)[C@@H]1[C@H](Nc2nc(Nc3cnn(CCc4ccccc4)c3)ncc2Br)[C@H]2C=C[C@@H]1C2 [Example 148]"
system = "NCI-H1299 cells"
readout_name = "EC15"
data_value = "< 100 nM"

[[record]]
compound = "COCCOCCn1cc(Nc2ncc(Cl)c(N[C@H]3[C@@H](C(N)=O)[C@@H]4C=C[C@H]3C4)n2)cn1 [Example 100]"
system = "NCI-H1299 cells"
readout_name = "EC15"
data_value = "< 100 nM"

[[record]]
compound = "COc1cccc(CCn2cc(Nc3ncc(Br)c(N[C@H]4[C@@H](C(N)=O)[C@@H]5C=C[C@H]4C5)n3)cn2)c1 [Example 160]"
system = "NCI-H1299 cells"
readout_name = "EC15"
data_value = "< 100 nM"

[[record]]
compound = "NC(=O)[C@@H]1[C@H](Nc2nc(Nc3cnn(C4CCNCC4)c3)ncc2Br)[C@H]2C=C[C@@H]1C2 [Example 95]"
system = "NCI-H1299 cells"
readout_name = "EC15"
data_value = "100 to 1000 nM"


###

# System: KDR (Homo sapiens)
# Sequence (P35968 20-1356): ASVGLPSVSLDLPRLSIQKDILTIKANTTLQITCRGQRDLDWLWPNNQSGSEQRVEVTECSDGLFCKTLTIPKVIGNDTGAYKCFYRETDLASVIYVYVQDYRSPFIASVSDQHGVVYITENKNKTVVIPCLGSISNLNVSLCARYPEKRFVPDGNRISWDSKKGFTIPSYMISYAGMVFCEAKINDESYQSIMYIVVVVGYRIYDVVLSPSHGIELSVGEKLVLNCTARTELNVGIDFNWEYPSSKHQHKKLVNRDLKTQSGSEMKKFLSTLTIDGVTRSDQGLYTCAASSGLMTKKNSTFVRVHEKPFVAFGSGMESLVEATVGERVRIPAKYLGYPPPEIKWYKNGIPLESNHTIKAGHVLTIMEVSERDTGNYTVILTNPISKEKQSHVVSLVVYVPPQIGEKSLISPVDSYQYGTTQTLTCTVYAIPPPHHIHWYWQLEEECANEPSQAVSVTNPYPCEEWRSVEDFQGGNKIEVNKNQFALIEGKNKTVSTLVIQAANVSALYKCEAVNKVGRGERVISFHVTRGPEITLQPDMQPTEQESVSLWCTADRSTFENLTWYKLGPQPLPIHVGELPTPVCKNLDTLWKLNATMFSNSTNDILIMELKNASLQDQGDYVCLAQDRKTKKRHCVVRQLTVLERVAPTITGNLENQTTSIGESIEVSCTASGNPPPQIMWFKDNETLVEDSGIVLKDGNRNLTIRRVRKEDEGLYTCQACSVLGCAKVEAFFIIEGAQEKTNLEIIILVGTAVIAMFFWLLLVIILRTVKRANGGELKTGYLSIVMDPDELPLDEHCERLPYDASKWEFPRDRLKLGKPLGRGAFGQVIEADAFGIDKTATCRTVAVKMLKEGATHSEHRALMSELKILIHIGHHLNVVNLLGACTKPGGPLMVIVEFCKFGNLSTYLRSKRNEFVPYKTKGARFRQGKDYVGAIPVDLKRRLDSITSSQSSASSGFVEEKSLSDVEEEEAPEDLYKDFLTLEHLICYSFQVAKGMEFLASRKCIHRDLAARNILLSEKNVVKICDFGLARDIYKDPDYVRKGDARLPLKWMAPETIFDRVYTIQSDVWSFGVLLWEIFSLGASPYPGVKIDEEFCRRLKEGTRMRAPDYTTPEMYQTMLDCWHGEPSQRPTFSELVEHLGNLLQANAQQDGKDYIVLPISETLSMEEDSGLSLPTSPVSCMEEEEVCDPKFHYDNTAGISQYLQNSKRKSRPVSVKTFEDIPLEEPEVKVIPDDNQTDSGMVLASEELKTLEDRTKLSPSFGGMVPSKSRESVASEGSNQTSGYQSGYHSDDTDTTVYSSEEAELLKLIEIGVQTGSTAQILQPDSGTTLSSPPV
# Test: KDR cellular assay (KDR receptor phosphorylation ELISA)
# Type: cell-based
# Set-up: expressed in transfected cells; host or cells: 3T3 (embryonic mouse) cells
# Conditions: KDR transfected 3T3 (embryonic mouse) cells, VEGF stimulated; read-out: IC50 inhibition of KDR phosphorylation
pIC50: −log10 of the molar value.
Readings of pIC50 for the listed compounds
Readout Name: pIC50

[[record]]
compound = "CC(O)Cn1cc(Nc2ncc(C(F)(F)F)c(NC3C4C=CC(C4)C3C(N)=O)n2)cn1 (mixture of isomers)"
system = "KDR (Homo sapiens)"
data_value = "> 7.00"

[[record]]
compound = "Cn1cc(Nc2ncc(Cl)c(N[C@@H]3[C@@H]4CC[C@@H](C4)[C@@H]3C(N)=O)n2)cn1.Cn1cc(Nc2ncc(Cl)c(N[C@H]3[C@H]4CC[C@H](C4)[C@H]3C(N)=O)n2)cn1 (mixture of isomers)"
system = "KDR (Homo sapiens)"
data_value = "6.00 to 7.00"

[[record]]
compound = "CN1CCN(CCn2cc(Nc3ncc(Cl)c(N[C@H]4[C@@H](C(N)=O)[C@@H]5C=C[C@H]4C5)n3)cn2)CC1"
system = "KDR (Homo sapiens)"
data_value = "> 7.00"

[[record]]
compound = "CCn1cc(Nc2ncc(C(N)=O)c(NC3C4C=CC(C4)C3C(N)=O)n2)cn1 (mixture of isomers)"
system = "KDR (Homo sapiens)"
data_value = "6.00 to 7.00"

[[record]]
compound = "Cc1c(Nc2ncc(Br)c(N[C@H]3[C@@H](C(N)=O)[C@@H]4C=C[C@H]3C4)n2)cnn1C"
system = "KDR (Homo sapiens)"
data_value = "> 7.00"

[[record]]
compound = "CN(C)CC(=O)N1CCC(n2cc(Nc3ncc(Cl)c(N[C@H]4[C@@H](C(N)=O)[C@@H]5C=C[C@H]4C5)n3)cn2)CC1"
system = "KDR (Homo sapiens)"
data_value = "> 7.00"

[[record]]
compound = "NC(=O)[C@@H]1[C@H](Nc2nc(Nc3cnn([C@@H]4CCOC4)c3)ncc2Br)[C@H]2C=C[C@@H]1C2"
system = "KDR (Homo sapiens)"
data_value = "> 7.00"

[[record]]
compound = "Cn1cc(Nc2ncc(C(F)(F)F)c(Nc3ccsc3C(N)=O)n2)cn1"
system = "KDR (Homo sapiens)"
data_value = "6.00 to 7.00"

[[record]]
compound = "COc1cccc(CCn2cc(Nc3ncc(Cl)c(N[C@H]4[C@@H](C(N)=O)[C@@H]5C=C[C@H]4C5)n3)cn2)c1"
system = "KDR (Homo sapiens)"
data_value = "6.00 to 7.00"

[[record]]
compound = "CCn1cc(Nc2ncc(Br)c(N[C@H]3[C@@H](C(N)=O)C[C@H]4C[C@@H]3C4(C)C)n2)cn1"
system = "KDR (Homo sapiens)"
data_value = "6.00 to 7.00"

[[record]]
compound = "NC(=O)[C@@H]1[C@H](Nc2nc(Nc3cnn(CCO)c3)ncc2C(F)(F)F)[C@H]2C=C[C@@H]1C2.NC(=O)[C@H]1[C@@H](Nc2nc(Nc3cnn(CCO)c3)ncc2C(F)(F)F)[C@@H]2C=C[C@H]1C2 (mixture of isomers)"
system = "KDR (Homo sapiens)"
data_value = "6.00 to 7.00"

[[record]]
compound = "Cc1nn(C)c(C)c1Nc1ncc(Cl)c(N[C@H]2[C@@H](C(N)=O)[C@@H]3C=C[C@H]2C3)n1"
system = "KDR (Homo sapiens)"
data_value = "6.00 to 7.00"

[[record]]
compound = "CC(=O)N1CCC(n2cc(Nc3ncc(Cl)c(N[C@H]4[C@@H](C(N)=O)[C@@H]5C=C[C@H]4C5)n3)cn2)CC1"
system = "KDR (Homo sapiens)"
data_value = "6.00 to 7.00"

